# testDescription: PAMPA (parallel artificial membrane permeability assay)
# Type: in vitro ADME
# appliedConditions: PAMPA; membrane permeation rate (Pe); 50 mM MOPSO buffer pH 6.5 with 5.0% glycocholic acid, 37° C., 18 hours; read-out: iPAMPA Pe
Starred links: 1 amine or outer side, 2 acyl side, 3 side chain; linkers in the order of their positions; H or OH if unused. Positions of bridges follow the written chain, without caps; N, C: chain ends. Non-standard residues stand in square brackets, D forms with d. Residues, ends and D or L forms follow the SMILES beside them. *: point of attachment. NMeF = CN[C@@H](Cc1ccccc1)C(=O)O; NMeGABA = CN(CCCC(=O)[*:2])[*:1]; NMeI = CC[C@H](C)[C@H](NC)C(=O)O; NMeL = CN[C@@H](CC(C)C)C(=O)O; NMeV = CN[C@H](C(=O)O)C(C)C; NMeA = CN[C@@H](C)C(=O)O; Piperidide = C1CCN(*)CC1; dNMeA = CN[C@H](C)C(=O)O; Aib = CC(C)(N)C(=O)O; Sar = CNCC(=O)O; tBu = CC(C)(C)*
Measured Papp at 18 hours, 50 µM, listed per entry for reference.

compound	uom	Papp at 18 hours, 50 µM
CC(C)C[C@H]1C(=O)N[C@@H](COC(C)(C)C)C(=O)N[C@H](C(=O)N2CCCCC2)CC(=O)N[C@H](C)C(=O)N(C)[C@@H](Cc2ccccc2)C(=O)N(C)[C@@H](CC(C)C)C(=O)N[C@@H]([C@@H](C)O)C(=O)N(C)[C@@H](C)C(=O)N1C [DP-529] ([dA][NMeF][NMeL]T[NMeA][NMeL]S(tBu)D-Piperidide; lactam N-8)	×10⁻⁶ cm/s	23
CC[C@H](C)[C@H]1C(=O)N[C@H](C(=O)N2CCCCC2)CC(=O)N[C@H](C)C(=O)N[C@@H](Cc2ccccc2)C(=O)N(C)[C@@H](C)C(=O)N(C)[C@@H](C(C)C)C(=O)N[C@@H]([C@@H](C)O)C(=O)N(C)CC(=O)N(C)[C@@H](CC(C)C)C(=O)N[C@@H](C)C(=O)N1C [DP-135] ([dA]F[NMeA][NMeV]T[Sar][NMeL]A[NMeI]D-Piperidide; lactam N-10)	×10⁻⁶ cm/s	5.2
CC(C)C[C@H]1C(=O)N(C)[C@@H](CC(C)C)C(=O)N[C@H](C(=O)N2CCCCC2)CC(=O)N(C)CCCC(=O)N(C)[C@@H](Cc2ccccc2)C(=O)N[C@@H]([C@@H](C)O)C(=O)N(C)CC(=O)N[C@@H](COC(C)(C)C)C(=O)N1C [DP-525] ([NMeGABA][NMeF]T[Sar]S(tBu)[NMeL][NMeL]D-Piperidide; lactam N-8)	×10⁻⁶ cm/s	22
CC(C)C[C@@H]1NC(=O)[C@H](CC(C)C)NC(=O)[C@H](C)N(C)C(=O)C[C@@H](C(=O)N2CCCCC2)NC(=O)[C@H](C(C)C)N(C)C(=O)[C@H](CC(C)C)NC(=O)[C@H](Cc2ccccc2)NC(=O)[C@H]([C@@H](C)O)NC(=O)CN(C)C(=O)[C@H](CC(C)C)NC(=O)C(C)(C)NC1=O [DP-560] ([NMeA]LL[Aib]L[Sar]TFL[NMeV]D-Piperidide; lactam N-11)	×10⁻⁶ cm/s	26
CC(C)C[C@@H]1NC(=O)[C@H](Cc2ccccc2)N(C)C(=O)[C@@H](C(C)C)NC(=O)C[C@@H](C(=O)N2CCCCC2)NC(=O)[C@H](Cc2ccccc2)NC(=O)[C@H](CC(C)C)N(C)C(=O)[C@H]([C@@H](C)O)NC(=O)[C@H](CC(C)C)N(C)C1=O [DP-703] ([dV][NMeF]L[NMeL]T[NMeL]FD-Piperidide; lactam N-8)	×10⁻⁶ cm/s	34
CC[C@H](C)[C@@H]1NC(=O)[C@H](C)N(C)C(=O)[C@H](Cc2ccccc2)N(C)C(=O)[C@H](C)N(C)C(=O)C[C@@H](C(=O)N(C)[C@@H](Cc2ccccc2)C(=O)N(C)[C@@H](Cc2ccccc2)C(=O)N[C@@H](C)C(=O)N2CCCCC2)NC(=O)[C@H](C)N(C)C(=O)[C@H](CC(C)C)N(C)C(=O)[C@H](C)N(C)C(=O)[C@H]([C@@H](C)O)NC(=O)[C@H](C)N(C)C1=O [DP-395] ([NMeA][NMeF][NMeA]I[NMeA]T[NMeA][NMeL][NMeA]D[NMeF][NMeF]A-Piperidide; lactam N-10)	×10⁻⁶ cm/s	19
CC[C@H](C)[C@@H]1NC(=O)[C@H](Cc2ccccc2)NC(=O)[C@@H](C)N(C)C(=O)C[C@@H](C(=O)N2CCCCC2)NC(=O)[C@H](CC(C)C)NC(=O)[C@H](Cc2ccccc2)N(C)C(=O)[C@H](Cc2ccccc2)NC(=O)[C@H](CC(C)C)NC(=O)[C@H]([C@@H](C)O)NC(=O)[C@H](CC(C)C)NC1=O [DP-119] ([dNMeA]FILTLF[NMeF]LD-Piperidide; lactam N-10)	×10⁻⁶ cm/s	16
CC(C)C[C@H]1C(=O)N[C@H](C(=O)N2CCCCC2)CC(=O)N[C@H](C)C(=O)N(C)[C@@H](Cc2ccccc2)C(=O)N(C)[C@@H](CC(C)C)C(=O)N[C@@H]([C@@H](C)O)C(=O)N(C)[C@@H](C)C(=O)N[C@@H](COC(C)(C)C)C(=O)N1C [DP-708] ([dA][NMeF][NMeL]T[NMeA]S(tBu)[NMeL]D-Piperidide; lactam N-8)	×10⁻⁶ cm/s	16
CC(C)C[C@H]1C(=O)NCC(=O)N[C@@H]([C@@H](C)O)C(=O)N(C)[C@@H](C(C)C)C(=O)N[C@@H](Cc2ccccc2)C(=O)N[C@H](C(=O)N(C)[C@@H](Cc2ccccc2)C(=O)N(C)[C@@H](Cc2ccccc2)C(=O)N[C@@H](C)C(=O)N2CCCCC2)CC(=O)N(C)[C@H](C)C(=O)N(C)[C@@H](C)C(=O)N[C@@H](C(C)C)C(=O)N(C)[C@@H](Cc2ccccc2)C(=O)N1C [DP-452] ([dNMeA][NMeA]V[NMeF][NMeL]GT[NMeV]FD[NMeF][NMeF]A-Piperidide; lactam N-10)	×10⁻⁶ cm/s	22
CC[C@H](C)[C@@H]1NC(=O)[C@H](C)N(C)C(=O)CCCN(C)C(=O)C[C@@H](C(=O)N2CCCCC2)NC(=O)[C@H](CC(C)C)N(C)C(=O)[C@H](C)N(C)C(=O)[C@H]([C@@H](C)O)NC(=O)[C@H](Cc2ccccc2)N(C)C(=O)[C@H](Cc2ccccc2)N(C)C(=O)[C@H](CC(C)C)N(C)C1=O [DP-261] ([NMeGABA][NMeA]I[NMeL][NMeF][NMeF]T[NMeA][NMeL]D-Piperidide; lactam N-10)	×10⁻⁶ cm/s	27
